Tested on: Es-2
Assay: Primary qHTS to identify gynecologic anti-cancer compounds using libraries of approved drugs and bioactive compounds (AID 1345084); further: nearly all actives have a fitted effect of over 55% in size
Details: Gynecologic cancer cell panel viability, ATPlite luminescence, 48 h; series mostly up to 57.5 µM
Inconclusive results are not listed. Activity calls are given as the source filed them. The call rests on the fitted dose curve; in most records, active means well fitted cell-killing curve with a large enough effect; inconclusive means small, poorly fitted or top-dose-only effect, or effect the other way; inactive means flat fitted curve, though single readings scatter.
// classify into 1.0 (active), 0.0 (inactive)

compound: CCCCC1=NC2(CCCC2)C(=O)N1Cc1ccc(-c2ccccc2-c2nn[nH]n2)cc1
target.desc: Es-2
label: 0.0

Outcome logged for O=C(COc1ccc(Cl)cc1)N1CCN(Cc2ccc3c(c2)OCO3)CC1 in this assay: 0.0

Outcome logged for CCCCC(=O)O[C@]1(C(=O)CO)CC[C@H]2[C@@H]3CCC4=CC(=O)CC[C@]4(C)[C@H]3[C@@H](O)C[C@@]21C in this assay: 0.0

Outcome logged for Cc1ccc(O)c2ncccc12 in this assay: 0.0

Outcome logged for NC(CS)C(=O)O (stereo not given) in this assay: 0.0

Outcome logged for CN(C(=O)CN(CCO)CC(=O)N(C)C(C)(C)Cc1ccccc1)C(C)(C)Cc1ccccc1 in this assay: 0.0

----------
System: ICS
Assay: qHTS profiling for inhibitors of Plasmodium falciparum proliferation (AID 504749); further: nearly all actives have a fitted effect of over 60% in size; further: potency means the concentration at half of the fitted maximal effect
Settings: P. falciparum in erythrocytes, SYBR Green DNA, 72 h; series mostly up to 28.7 µM
Results filed as inconclusive are left out. Active and inactive are the calls of the source. The call rests on the fitted dose curve; in most records, active means well fitted inhibition curve with a large enough effect; inconclusive means small, poorly fitted or top-dose-only effect; inactive means flat fitted curve, though single readings scatter.
value.type: Potency

Completed entries (count: 5):
molecule: CCOC(=O)OC(C)OC1=C(C(=O)Nc2ccccn2)N(C)S(=O)(=O)c2ccccc21 (stereo unspecified)
target.desc: ICS
reported.value: inactive
--
molecule: CN1CCN(CCCN2c3ccccc3Sc3ccc(S(=O)(=O)N(C)C)cc32)CC1
target.desc: ICS
reported.value: 1.41 µM (active)
--
molecule: CCN1CCCC1=O
target.desc: ICS
reported.value: inactive
--
molecule: CCN(CC)CCOc1ccc(C(O)(Cc2ccc(Cl)cc2)c2ccc(C)cc2)cc1 (stereo unspecified)
target.desc: ICS
reported.value: 8.91 µM (active)
--
molecule: CCCN1CCCC[C@H]1C(=O)Nc1c(C)cccc1C
target.desc: ICS
reported.value: inactive

Reported Potency, molecule Nc1cc(Cl)c(NC2=NCCN2)c(Cl)c1 : ____ inactive

Reported Potency, molecule C[C@]12CCC(=O)C=C1CC[C@H]1[C@@H]3CC[C@](O)(C(=O)CO)[C@@]3(C)C[C@H](O)[C@@]12F : ____ inactive

Reported Potency, molecule CC(=O)N/N=C/c1ccc([N+](=O)[O-])o1 : ____ 5.62 µM (active)

Reported Potency, molecule CCN(CC)CCNC(=O)COc1ccc(Cl)cc1 : ____ 12.6 µM (active)

Reported Potency, molecule N[C@H](CO)C(=O)O : ____ inactive

Reported Potency, molecule COc1ccc(CCN2CCC(Nc3nc4ccccc4n3Cc3ccc(F)cc3)CC2)cc1 : ____ 2.82 µM (active)

----------
Test system: Tov-21-G
Test: Primary qHTS to identify gynecologic anti-cancer compounds using libraries of approved drugs and bioactive compounds (AID 1345084); further: nearly all actives have a fitted effect of over 55% in size
Conditions: Gynecologic cancer cell panel viability, ATPlite luminescence, 48 h; series mostly up to 57.5 µM
Results filed as inconclusive are left out. The source made the active and inactive calls. Calls come from the whole dose curve; as a rule, active = well fitted cell-killing curve with a large enough effect; inconclusive = small, poorly fitted or top-dose-only effect, or effect the other way; inactive = flat fitted curve, though single readings scatter.
// classify into YES (active), NO (inactive)

See these solved cases before continuing.
molecule: NC(CS)C(=O)O (configuration not stated)
label: NO
//
molecule: O=C(O)CNC(=O)c1ccccc1
label: NO
//
molecule: CCN1CCCC1=O
label: NO
//
molecule: N[C@H](Cc1c[nH]c2ccccc12)C(=O)O
label: NO
//
molecule: NC(=O)C(=O)N/N=C/c1ccc([N+](=O)[O-])o1
label: NO
//
molecule: Clc1ccc2c(c1)CCc1cccnc1C2=C1CCNCC1
label: NO
//
molecule: OC[C@H]1O[C@@H](n2cnc3c(=S)nc[nH]c32)[C@H](O)[C@@H]1O
label: YES
//
molecule: CN(C)CC/C=C1/c2ccccc2COc2ccc(CC(=O)O)cc21
label: NO
//
molecule: C/C=C(/C(=C/C)c1ccc(O)cc1)c1ccc(O)cc1
label: NO
//
molecule: C[C@@H](CN(C)C)CN1c2ccccc2Sc2ccccc21
label: NO

Outcome logged for CN(C)CC/C=C1\c2ccccc2Sc2ccc(Cl)cc21 in this assay: NO

Outcome logged for CC(=O)O[C@]1(C(C)=O)CC[C@H]2[C@@H]3C[C@H](C)C4=CC(=O)CC[C@]4(C)[C@H]3CC[C@@]21C in this assay: NO
